Biological target: T1, human CD33 (human, UniProt P20138 18-259, limits assumed)
T1 construct: Human CD33 immobilized on the BLI sensor tip or the BIAcore C1 chip; also called Siglec-3
T1 sequence (P20138 18-259 limits assumed): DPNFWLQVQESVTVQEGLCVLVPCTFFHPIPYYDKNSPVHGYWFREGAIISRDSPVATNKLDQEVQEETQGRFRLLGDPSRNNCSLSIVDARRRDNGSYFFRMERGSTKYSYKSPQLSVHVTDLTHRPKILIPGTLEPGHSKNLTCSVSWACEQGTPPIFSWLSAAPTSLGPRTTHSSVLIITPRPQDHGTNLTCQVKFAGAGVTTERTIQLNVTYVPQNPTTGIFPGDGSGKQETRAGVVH
Test: BLI (ForteBio), Fab; column looks row-shifted against KD
Protocol: The affinities (KD) of the humanized antibodies for human CD33 were measured for each antibody by BioLayer Interferometry in a ForteBio assay according to standard techniques (Estep et al. (2013) MAbs 5(2): 270-8). […] The assay was carried out at room temperature. The affinities of AB-H14 and its affinity-matured variants (Table 15) and AB-H63 and its affinity-matured variants (Table 16), for human CD33 were measured by Fortebio assay according to the method described in Example 1 above.
READOUT_LABEL: kon (M⁻¹ s⁻¹)
Return type: number; implicit unit M⁻¹ s⁻¹.

# input binder: AB-63.15 (antibody, V domains shown) VH: QVQLVQSGAEVKKPGASVKVSCKASGYTFTDYNYHWVRQAPGQGLEWIGFIYPSNGITGYAQKFQGRVTMTVDTSTSTVYMELSSLRSEDTAVYYCARSDVDYFDLWGQGTLVTVSS VL: DIVLTQSPDSLAVSLGERATINCRASQDVSTSTYSYMHWYQQKPGQPPKLLIKYASNVESGVPDRFSGSGSGTDFTLTISSLQAEDVAVYYCQHSWEIPLTFGQGTKLEIE ; wanted: its kon
723000

# input binder: AB-63.9 (antibody, V domains shown) VH: QVQLVQSGAEVKKPGASVKVSCKASGYAFTDYNLHWVRQAPGQGLEWIGFIYPSNGITGYAQKFQGRVTMTVDTSTSTVYMELSSLRSEDTAVYYCARSDVDYFDYWGQGTLVTVSS VL: DIVLTQSPDSLAVSLGERATINCRASQDVSTSTYSYMHWYQQKPGQPPKLLIKYASYLESGVPDRFSGSGSGTDFTLTISSLQAEDVAVYYCEHSWEIPLTFGQGTKLEIK ; wanted: its kon
658000

# input binder: AB-63.11 (antibody, V domains shown) VH: QVQLVQSGAEVKKPGASVKVSCKASGYTFTDYNFHWVRQAPGQGLEWIGFIYPANGITGYAQKDQGRVTMTVDTSTSTVYMELSSLRSEDTAVYYCARSDVDYFDYWGQGTLVTVSS VL: DIVLTQSPDSLAVSLGERATINCRASQDVSTSTYSYMHWYQQKPGQPPKLLIKYASNLESGVPDRFSGSGSGTDFTLTISSLQAEDVAVYYCQHSWEIPLTFGQGTKLEIK ; wanted: its kon
913000
